test system: HCC-827 (Lung Adenocarcinoma); experiment: Bliss excess, mean over the matrix (fraction); higher = more synergy;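 also: after 72 h of two-drug dosing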
ENDPOINT LABEL: Bliss excess
// return a plain number; no unit text

## Task Please state recorded Bliss excess (tested on HCC-827 (Lung Adenocarcinoma)) of NC1(C(=O)N[C@@H](CCO)c2ccc(Cl)cc2)CCN(c2ncnc3[nH]ccc23)CC1 [Capivasertib] + Cn1cnc2c(F)c(Nc3ccc(Br)cc3Cl)c(C(=O)NOCCO)cc21 [Selumetinib] (first compound max 10 µM, 7x7, partner max 10 µM);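 also: after 72 h of two-drug dosing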
## Result 0.04

## Task Please state recorded Bliss excess (tested on HCC-827 (Lung Adenocarcinoma)) of COc1cc2c(cc1OCCCCCOc1cc3c(cc1OC)C(=O)N1C=C(C)C[C@H]1C=N3)N=C[C@@H]1CC(C)=CN1C2=O [SG3199] + O=C(c1cc(Cc2n[nH]c(=O)c3ccccc23)ccc1F)N1CCN(C(=O)C2CC2)CC1 [Olaparib] (first compound max 0.001 µM, 7x7, partner max 10 µM);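 also: after 72 h of two-drug dosing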
## Result -0.0194

## Task Please state recorded Bliss excess (tested on HCC-827 (Lung Adenocarcinoma)) of CC(=O)c1c(C)c2cnc(Nc3ccc(N4CCNCC4)cn3)nc2n(C2CCCC2)c1=O [Palbociclib] + CN(CC[C@H](CSC1=CC=CC=C1)NC2=C(C=C(C=C2)S(=O)(=O)NC(=O)C3=CC=C(C=C3)N4CCC(CC4)[C@H](C5=CC=CC=C5C6=CC=C(C=C6)Cl)O)S(=O)(=O)C(F)(F)F)CCO [AZD4320] (first compound max 10 µM, 7x7, partner max 1 µM);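 also: after 72 h of two-drug dosing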
## Result -0.0307

## Task Please state recorded Bliss excess (tested on HCC-827 (Lung Adenocarcinoma)) of COc1cccc(OCCCN)c1-c1cc(Nc2cnc(C#N)cn2)n[nH]1 [Prexasertib] + CCc1c2c(nc3ccc(O)cc13)-c1cc3c(c(=O)n1C2)COC(=O)[C@]3(O)CC [SN-38] (first compound max 1 µM, 7x7, partner max 0.3 µM);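 also: after 72 h of two-drug dosing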
## Result 0
